subject_of_test: BTK (Homo sapiens, UniProt Q06187)
Sequence (Q06187 402-655 limits assumed): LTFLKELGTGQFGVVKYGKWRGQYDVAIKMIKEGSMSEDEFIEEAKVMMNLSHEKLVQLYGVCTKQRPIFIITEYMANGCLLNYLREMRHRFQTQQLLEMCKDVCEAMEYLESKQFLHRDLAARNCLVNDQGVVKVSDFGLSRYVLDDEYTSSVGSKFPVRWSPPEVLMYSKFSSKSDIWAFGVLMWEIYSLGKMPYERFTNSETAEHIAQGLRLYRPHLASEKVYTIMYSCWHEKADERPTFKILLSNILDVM
test_protocol: biochemical
condition_context: read-out: BTK inhibition (%), 0.75 uM BTK, […] probe 3l, 15 min preincubation
Assignment: determine reported inhibition at 10 µM for the given molecules.
Answers are plain numbers, in %.

{"molecule": "C/C=C(/C)C(=O)O[C@H]1c2cc(OC)c(OC)c(OC)c2-c2c(cc3c(c2OC)OCO3)C[C@H](C)[C@]1(C)O", "endpoint_name": "inhibition at 10 µM", "observed_value": -25.5}
{"molecule": "C/C=C(\\C)C(=O)O[C@H]1[C@H](OC(C)=O)[C@@]2(CO)C(CC1(C)C)C1=CCC3[C@@]4(C)CCC(O[C@@H]5O[C@H](C(=O)O)[C@@H](O[C@@H]6O[C@H](CO)[C@@H](O)[C@H](O)[C@H]6O)[C@H](O)[C@H]5O[C@@H]5O[C@H](CO)[C@@H](O)[C@H](O)[C@H]5O)[C@](C)(CO)C4CC[C@@]3(C)[C@]1(C)C[C@H]2O (stereo partly drawn)", "endpoint_name": "inhibition at 10 µM", "observed_value": 3.4}
{"molecule": "O=C(c1ccc(C(=O)N2CCC(N3CCCC3)CC2)c(Nc2ccccc2)c1)N1CCC(N2CCCC2)CC1", "endpoint_name": "inhibition at 10 µM", "observed_value": -10.8}
{"molecule": "CNC1CCCN(c2c(F)cc3c(=O)c(C(=O)O)cn(C4CC4)c3c2OC)C1 (stereo not drawn)", "endpoint_name": "inhibition at 10 µM", "observed_value": -5.4}
{"molecule": "Cc1cccc(Nc2ccncc2S(=O)(=O)NC(=O)NC(C)C)c1", "endpoint_name": "inhibition at 10 µM", "observed_value": -4.3}

Next:
Problem: Please tell me the measured inhibition at 10 µM for C[C@@H]1O[C@@H](O[C@@H]2[C@@H](O)[C@H](OCCc3ccc(O)c(O)c3)O[C@H](COC(=O)/C=C/c3ccc(O)c(O)c3)[C@H]2O)[C@H](O)[C@H](O)[C@H]1O ; system: BTK (Homo sapiens, UniProt Q06187).
Solution: -11.6

----------
subject_of_test: BTK (Homo sapiens)
test_protocol: biochemical
condition_context: read-out: BTK inhibition (%), 0.75 uM BTK, […] probe 3l, 15 min preincubation
endpoint_name: inhibition at 10 µM
Please append the unit to your numeric answer.

{"molecule": "COCCCc1sc(-c2ccccc2)nc1C(=O)Nc1ccccc1-c1nc2cc(CN3CCCC3)cnc2s1", "subject_of_test": "BTK (Homo sapiens)", "observed_value": "57.9%"}
{"molecule": "CC(=O)O[C@@H]1C[C@@H]2CC[C@@]1(C)C2(C)C", "subject_of_test": "BTK (Homo sapiens)", "observed_value": "-21.4%"}
{"molecule": "CN(C)CCCN1c2ccccc2Sc2ccc(Cl)cc21", "subject_of_test": "BTK (Homo sapiens)", "observed_value": "-16.3%"}
{"molecule": "Cc1cc2c3c([n+](C)c4ccc(F)cc4c3c1)-c1cc(F)ccc1N2C", "subject_of_test": "BTK (Homo sapiens)", "observed_value": "13.1%"}
{"molecule": "C[S+]([O-])c1ccc(-c2nc(-c3ccc(F)cc3)c(-c3ccncc3)[nH]2)cc1 (stereo not shown)", "subject_of_test": "BTK (Homo sapiens)", "observed_value": "18.6%"}
{"molecule": "CCS(=O)(=O)Nc1ccc(Oc2ccc(F)cc2F)c(-c2cn(C)c(=O)c3[nH]ccc23)c1", "subject_of_test": "BTK (Homo sapiens)", "observed_value": "16.2%"}
{"molecule": "Clc1cccc(CN=C2Nc3ccccc3NC23CCNCC3)c1", "subject_of_test": "BTK (Homo sapiens)", "observed_value": "4.6%"}
{"molecule": "CC(C)c1noc(N2CCC(COc3ccc(-c4ccc(S(C)(=O)=O)cc4)nc3)CC2)n1", "subject_of_test": "BTK (Homo sapiens)", "observed_value": "-14%"}

Here are 2 molecules. What values of inhibition at 10 µM were reported for them?
1. COc1ccc(C2=N[C@@H](c3ccc(Cl)cc3)[C@@H](c3ccc(Cl)cc3)N2C(=O)N2CCNC(=O)C2)c(OC(C)C)c1
2. N[C@H]1C[C@@H]1c1ccccc1

Solution:
1. 14.5%
2. -6.2%

Here are 6 molecules. What values of inhibition at 10 µM were reported for them?
1. COc1cc(C[C@H](C)[C@H](C)Cc2ccc3c(c2)OCO3)ccc1O
2. CNC1CCC(N(Cc2cccc(-c3ccncc3)c2)C(=O)c2sc3ccccc3c2Cl)CC1 (stereo not shown)
3. Nc1cccc(-c2cc3c(Oc4cccc(O)c4)ncnc3[nH]2)c1
4. COc1cc(NC(=O)c2ccc(-c3ccc(Cl)cc3)o2)cc(OC)c1
5. C=CC(=O)N1CCC[C@H](n2c(=O)n(-c3ccc(Oc4ccccc4)cc3)c3c(N)ncnc32)C1
6. Cc1cc(C)c(CNC(=O)c2cc(-c3ccc(CN4CCOCC4)cc3)cc3c2cnn3C2CCCC2)c(=O)[nH]1

Solution:
68.7%
-8.5%
82.1%
56.8%
97.2%
-6.8%

----------
Assignment: determine reported inhibition at 10 µM for the given compounds.
subject_of_test: BTK (Homo sapiens, UniProt Q06187)
test_protocol: biochemical
condition_context: read-out: BTK inhibition (%), 0.75 uM BTK, […] probe 3l, 15 min preincubation
Give bare numbers, in %.

{"smiles_data": "Cc1ccc([C@@H]2O[C@H](CO)[C@@H](O)[C@H](O)[C@H]2O)cc1Cc1ccc(-c2ccc(F)cc2)s1", "endpoint_name": "inhibition at 10 µM", "observed_value": 7.6}
{"smiles_data": "c1ccc(CNCc2ccc(CN3CCCNCCNCCCNCC3)cc2)nc1", "endpoint_name": "inhibition at 10 µM", "observed_value": -2.6}

Here are 3 compounds. What values of inhibition at 10 µM were reported for them?
1. O=C(c1cccc(Cl)c1F)N1CCN(Cc2cccc(Nc3nccs3)n2)CC1
2. CNCC[C@H](Oc1cccc2ccccc12)c1cccs1
3. CCc1ccc(/C=C2/SC(=S)NC2=O)cc1

Solution:
1: 68.3; 2: -1.6; 3: 46.2

----------
subject_of_test: BTK (Homo sapiens, UniProt Q06187)
test_protocol: biochemical
condition_context: read-out: BTK inhibition (%), 0.75 uM BTK, […] probe 3l, 15 min preincubation
endpoint_name: inhibition at 10 µM (%)
Give bare numbers, in %.

{"compound": "COc1ccc(C(=O)CC(=O)c2ccc(C(C)(C)C)cc2)cc1 [PCM-0090378]", "subject_of_test": "BTK (Homo sapiens, UniProt Q06187)", "inhibition at 10 µM, %": -3.9}
{"compound": "OC[C@@H](O)[C@@H](O)[C@H](O)[C@H](O)CO [PCM-0094876]", "subject_of_test": "BTK (Homo sapiens, UniProt Q06187)", "inhibition at 10 µM, %": -17.1}
{"compound": "CCOc1cc(C(=O)N2CCC(N3CCN(C)CC3)CC2)ccc1Nc1ncc2c(n1)N(C1CCCC1)c1ccccc1C(=O)N2C [PCM-0213331]", "subject_of_test": "BTK (Homo sapiens, UniProt Q06187)", "inhibition at 10 µM, %": 0}
{"compound": "COc1ccc(-c2nc3ccc(C4=NNC(=O)CC4C)cc3[nH]2)cc1 (centres unmarked) [PCM-0095109]", "subject_of_test": "BTK (Homo sapiens, UniProt Q06187)", "inhibition at 10 µM, %": -21.8}
{"compound": "CCCc1nc(C(C)(C)O)c(C(=O)OCc2oc(=O)oc2C)n1Cc1ccc(-c2ccccc2-c2nn[nH]n2)cc1 [PCM-0086318]", "subject_of_test": "BTK (Homo sapiens, UniProt Q06187)", "inhibition at 10 µM, %": 0.8}

Here are 2 compounds. What values of inhibition at 10 µM were reported for them?
1. COC(=O)[C@@]1(C)CC[C@]2(C(=O)O)CC[C@]3(C)C(=CC[C@@H]4[C@@]5(C)C[C@H](O)[C@H](O)[C@@](C)(CO)[C@@H]5CC[C@]43C)[C@@H]2C1 [PCM-0216474]
2. O=[N+]([O-])c1ccc2c(c1)S(=O)(=O)C=C2 [PCM-0065368]

Solution:
-0.8
40.9

Here are 7 compounds. What values of inhibition at 10 µM were reported for them?
1. Cc1cc(-c2ccc(N=Nc3ccc4c(S(=O)(=O)O)cc(S(=O)(=O)O)c(N)c4c3O)c(C)c2)ccc1N=Nc1ccc2c(S(=O)(=O)O)cc(S(=O)(=O)O)c(N)c2c1O [PCM-0214845]
2. O=C[C@H](O)[C@@H](O)[C@H](O[C@H]1O[C@H](CO)[C@@H](O[C@H]2O[C@H](CO)[C@@H](O[C@H]3O[C@H](CO)[C@@H](O)[C@H](O)[C@H]3O)[C@H](O)[C@H]2O)[C@H](O)[C@H]1O)[C@H](O)CO [PCM-0216456]
3. CCOc1cc([C@@H](CS(C)(=O)=O)N2C(=O)c3cccc(NC(C)=O)c3C2=O)ccc1OC [PCM-0095620]
4. CO[C@H]1C(=O)[C@]2(C)[C@@H](OC)C[C@H]3OC[C@@]3(OC(C)=O)[C@H]2[C@H](OC(=O)c2ccccc2)[C@]2(O)C[C@H](OC(=O)[C@H](O)[C@@H](NC(=O)OC(C)(C)C)c3ccccc3)C(C)=C1C2(C)C [PCM-0214715]
5. O=Cc1ccc(O)c(O)c1 [PCM-0215162]
6. O=C(Nc1cc(Cl)cc(Cl)c1O)c1c(O)c(Cl)cc(Cl)c1Cl [PCM-0215152]
7. O=C(Nc1ccc(Br)cc1)c1ccc(Br)c(S(=O)(=O)NCc2ccccc2)c1 [PCM-0215665]

Solution:
1: 125; 2: 0.8; 3: 9; 4: -14.8; 5: 5.4; 6: 18.5; 7: 100

Here are 3 compounds. What values of inhibition at 10 µM were reported for them?
1. COc1cc2c(cc1O)C[C@H]1c3cc(O)c(OC)cc3CC[N@@+]1(C)C2 [PCM-0216444]
2. CC1=C[C@H](O)CC(C)(C)[C@H]1/C=C/C(C)=C/C=C/C(C)=C/C=C/C=C(C)/C=C/C=C(C)/C=C/C1=C(C)C[C@@H](O)CC1(C)C [PCM-0215916]
3. c1nc2nc(Nc3ccc(N4CCOCC4)cc3)nc(NC3CCCCC3)c2[nH]1 [PCM-0215406]

Solution:
-1.5
0.8
101
